# test: Comparison of intracerebral kinetics in mice
# Type: in vivo, ddY male mice
# appliedConditions: mouse, i.v. tail vein, 60 min after administration
metric: radioactivity in the brain (% ID/g)
Give the value in % ID/g but do not write % ID/g after it.

*Q* Given [125I]c1ccc2c(c1)nc1ccccn12 [[^125I]BIP-3] , state its recorded radioactivity in the brain.
*A* 0.06

*Q* Given [125I]c1ccc2c(c1)nc1cc(-c3ccccc3)ccn12 [[^125I]BIP-1] , state its recorded radioactivity in the brain.
*A* 0.23

*Q* Given [125I]c1ccn2c(c1)nc1ccccc12 [[^125I]BIP-4] , state its recorded radioactivity in the brain.
*A* 0.06

*Q* Given [125I]c1ccc(-c2ccn3c(c2)nc2ccccc23)cc1 [[^125I]BIP-2] , state its recorded radioactivity in the brain.
*A* 0.26

---

# test: Comparison of intracerebral kinetics in mice
# Assay type: in vivo, ddY male mice
# appliedConditions: ratio of radioactivity in the brain between 2 and 60 min after administration
metric: Brain2 min/60 min
Give your answer as a number; write no unit.

*Q* Given [125I]c1ccn2c(c1)nc1ccccc12 [[^125I]BIP-4] , state its recorded Brain2 min/60 min.
*A* 39.5

*Q* Given [125I]c1ccc2c(c1)nc1cc(-c3ccccc3)ccn12 [[^125I]BIP-1] , state its recorded Brain2 min/60 min.
*A* 15.3

*Q* Given [125I]c1ccc(-c2ccn3c(c2)nc2ccccc23)cc1 [[^125I]BIP-2] , state its recorded Brain2 min/60 min.
*A* 10.4

*Q* Given [125I]c1ccc2c(c1)nc1ccccn12 [[^125I]BIP-3] , state its recorded Brain2 min/60 min.
*A* 79.0

---

# test: Comparison of intracerebral kinetics in mice
# Format: in vivo, ddY male mice
# appliedConditions: mouse, i.v. tail vein, 10 min after administration
Please respond with reported radioactivity in the brain for every item in the list.
Give the value in % ID/g but do not write % ID/g after it.

*Q* Given [125I]c1ccn2c(c1)nc1ccccc12 [[^125I]BIP-4] , state its recorded radioactivity in the brain.
*A* 0.36

*Q* Given [125I]c1ccc2c(c1)nc1ccccn12 [[^125I]BIP-3] , state its recorded radioactivity in the brain.
*A* 0.65

*Q* Given [125I]c1ccc(-c2ccn3c(c2)nc2ccccc23)cc1 [[^125I]BIP-2] , state its recorded radioactivity in the brain.
*A* 1.73

*Q* Given [125I]c1ccc2c(c1)nc1cc(-c3ccccc3)ccn12 [[^125I]BIP-1] , state its recorded radioactivity in the brain.
*A* 2.14

---

# test: Comparison of intracerebral kinetics in mice
# Assay type: in vivo, ddY male mice
# appliedConditions: mouse, i.v. tail vein, 2 min after administration
metric: radioactivity in the brain
Report field: quantity (unit follows the number).

*Q* Given [125I]c1ccc2c(c1)nc1ccccn12 [[^125I]BIP-3] , state its recorded radioactivity in the brain.
*A* 4.74 % ID/g

*Q* Given [125I]c1ccc(-c2ccn3c(c2)nc2ccccc23)cc1 [[^125I]BIP-2] , state its recorded radioactivity in the brain.
*A* 2.73 % ID/g

*Q* Given [125I]c1ccc2c(c1)nc1cc(-c3ccccc3)ccn12 [[^125I]BIP-1] , state its recorded radioactivity in the brain.
*A* 3.51 % ID/g

*Q* Given [125I]c1ccn2c(c1)nc1ccccc12 [[^125I]BIP-4] , state its recorded radioactivity in the brain.
*A* 2.37 % ID/g

---

# test: Comparison of intracerebral kinetics in mice
# Assay type: in vivo, ddY male mice
# appliedConditions: mouse, i.v. tail vein, 30 min after administration
Please respond with reported radioactivity in the brain for every item in the list.
Give the value in % ID/g but do not write % ID/g after it.

*Q* Given [125I]c1ccn2c(c1)nc1ccccc12 [[^125I]BIP-4] , state its recorded radioactivity in the brain.
*A* 0.09

*Q* Given [125I]c1ccc2c(c1)nc1cc(-c3ccccc3)ccn12 [[^125I]BIP-1] , state its recorded radioactivity in the brain.
*A* 0.65

*Q* Given [125I]c1ccc2c(c1)nc1ccccn12 [[^125I]BIP-3] , state its recorded radioactivity in the brain.
*A* 0.12

*Q* Given [125I]c1ccc(-c2ccn3c(c2)nc2ccccc23)cc1 [[^125I]BIP-2] , state its recorded radioactivity in the brain.
*A* 0.57

---

# test: Log P value measurement (1-octanol/phosphate buffer)
# Assay type: physicochemical
# appliedConditions: 1-octanol / 0.1 mol/L phosphate buffer solution pH 7.4
# Method: Each of [^125I]BIP-1 to -4 (125 kBq) obtained by the method shown in Example 9 was added to a centrifuge tube containing 1-octanol (3.00 mL) and a 0.1 mol/L phosphate buffer solution (pH 7.4, 3.00 mL), vortexed for 2 minutes, and then centrifuged at 4,000×g for 10 minutes. 500 μL of a solution was collected from each layer, and the radioactivity thereof was then measured. A partition coefficient was determined from the 1-octanol/phosphate buffer solution ratio of radioactivity.
metric: Log P
Give your answer as a number; write no unit.

*Q* Given [125I]c1ccc2c(c1)nc1cc(-c3ccccc3)ccn12 [[^125I]BIP-1] , state its recorded Log P.
*A* 2.64

*Q* Given [125I]c1ccc(-c2ccn3c(c2)nc2ccccc23)cc1 [[^125I]BIP-2] , state its recorded Log P.
*A* 2.61

*Q* Given [125I]c1ccc2c(c1)nc1ccccn12 [[^125I]BIP-3] , state its recorded Log P.
*A* 3.22

*Q* Given [125I]c1ccn2c(c1)nc1ccccc12 [[^125I]BIP-4] , state its recorded Log P.
*A* 2.35

Reference for the values: patent US10080812B2
